All figures here come from PubChem BioAssay (NCATS).

assayComment: Quantitative High-Throughput drug screen in 47 multiple myeloma cell lines against the NCATS MIPE library collection: KMS26_JCRB cell viability assay (AID 1918975); further: nearly all actives have a fitted effect of over 45% in size
condition: KMS26 myeloma cells viability, CellTiter-Glo ATP, 48 h; series mostly up to 45.8 µM
Inconclusive results are not listed. Calls of active or inactive are those of the source. The call rests on the fitted dose curve; in most records, active means well fitted cell-killing curve with a large enough effect; inconclusive means small, poorly fitted or top-dose-only effect, or effect the other way; inactive means no such curve, though single readings can be large or run the other way.
Classes used: active, inactive

- molecule: "Cc1ccccc1C(=O)c1ccc(Nc2ccc(Br)cc2N)cc1Cl"
  cat: "active"
- molecule: "CC1(COc2ccc3c(c2)ncn3-c2ccc3cccc(N4CCC(N)CC4)c3n2)COC1"
  cat: "active"
- molecule: "C[C@]12CC[C@@H]3c4ccc(O)cc4CC[C@H]3[C@H]1[C@@H](O)[C@@H](O)[C@H]2O"
  cat: "inactive"
- molecule: "CC1(C)OC2CC3C4CC(F)C5=CC(=O)C=CC5(C)C4C(O)CC3(C)[C@]2(C(=O)CO)O1 (stereo not given in full)"
  cat: "inactive"
- molecule: "Oc1cc(O)cc(C=Cc2ccc(O)c(O)c2)c1"
  cat: "active"

----------
assayComment: Quantitative High-Throughput drug screen in 47 multiple myeloma cell lines against the NCATS MIPE library collection: KMS28PE_JCRB cell viability assay (AID 1918983); further: nearly all actives have a fitted effect of over 35% in size
condition: KMS28PE multiple myeloma viability, CellTiter-Glo ATP, 48 h; series mostly up to 45.8 µM
Records with an inconclusive call do not appear. Calls of active or inactive are those of the source. Calls come from the whole dose curve; as a rule, active = well fitted cell-killing curve with a large enough effect; inconclusive = small, poorly fitted or top-dose-only effect, or effect the other way; inactive = no such curve, though single readings can be large or run the other way.
Classes used: yes (1) for active, no (0) for inactive

- compound: "CC1(C)[C@H]2CC[C@]3(C)[C@@H](C(=O)C=C4[C@@H]5C[C@@](C)(C(=O)O)CC[C@]5(C)CC[C@]43C)[C@@]2(C)CC[C@@H]1O"
  cat: "yes (1)"
- compound: "CC(C)c1c(C(=O)Nc2ccccc2)c(-c2ccccc2)c(-c2ccc(F)cc2)n1CC[C@H](O)C[C@@H](O)CC(=O)O"
  cat: "yes (1)"
- compound: "CN(C)c1nc(Cc2ccc(NC(=O)c3ccc(C(F)(F)F)cc3)cc2)nc(N(C)C)c1CC(=O)O"
  cat: "yes (1)"
- compound: "Cn1c(=O)c(Oc2ccc(F)cc2F)cc2cnc(NC3CCOCC3)nc21"
  cat: "no (0)"
- compound: "CN1C(=O)C(Cc2c[nH]c3ccccc23)NC1=S (centres undefined)"
  cat: "no (0)"
- compound: "C[C@H]1O[C@@H](n2cc(F)c(=O)[nH]c2=O)[C@H](O)[C@H]1O"
  cat: "no (0)"
- compound: "Cc1cnc(-c2cc(N3CCN(C(=O)CCS(C)(=O)=O)CC3)ncc2Cl)c(C)c1"
  cat: "no (0)"
- compound: "CN1C(=O)C[C@H](C(=O)N[C@@H](Cc2cnc[nH]2)C(=O)N2CCC[C@@H]2C(N)=O)NC1=O"
  cat: "no (0)"
- compound: "CN1CCc2c(n(Cc3ccc(C(=O)NO)cc3)c3ccccc23)C1"
  cat: "yes (1)"

----------
assayComment: qHTS drug screen for cell cycle checkpoint inhibitors in PARPi-resistant BRCA-mutant ovarian cancer cell lines. (AID 1963452); further: potency means the concentration at half of the fitted maximal effect
condition: PEO1/OlaR viability, CellTiter-Glo luminescence, 96 h
Calls of active or inactive are those of the source. Calls come from the whole dose curve.
Reported Potency values are given for each entry in this list.

- compound: "COc1ccc(-c2ccc3ncc4c(c3c2)n(-c2ccc(N3CCNCC3)c(C(F)(F)F)c2)c(=O)n4C)cn1"
  Potency: "123 nM (active)"
- compound: "Cc1ccc(C(=O)N(CCCN)[C@@H](c2nc3cc(Cl)ccc3c(=O)n2Cc2ccccc2)C(C)C)cc1"
  Potency: "9.8 nM (active)"
- compound: "CCNC(=O)c1noc(-c2cc(C(C)C)c(O)cc2O)c1-c1ccc(CN2CCOCC2)cc1"
  Potency: "24.5 nM (active)"
- compound: "CC1(C)CC(=O)c2c(C(F)(F)F)nn(-c3ccc(C(N)=O)c(NC4CCC(O)CC4)c3)c2C1 (stereo not given)"
  Potency: "219 nM (active)"
- compound: "CCC[C@H](Nc1nc(-c2ccc(NC(=O)NCC)c(OC)c2)ncc1C)c1cccnc1"
  Potency: "8.7 nM (active)"

----------
assayComment: qHTS of pediatric cancer cell lines to identify multiple opportunities for drug repurposing: Primary screen for LAN-5 cells (AID 1347100)
condition: LAN-5 neuroblastoma viability, CellTiter-Glo luminescence, 48 h; series mostly up to 46 µM
Results filed as inconclusive are left out. The source made the active and inactive calls. Calls follow the shape of the dose curve; as a rule, active = well fitted cell-killing curve with a large enough effect; inconclusive = small, poorly fitted or top-dose-only effect; inactive = no such curve, though single readings can be large or run the other way.
Classes used: TRUE (active), FALSE (inactive)

- compound: "O=C1C(CCC(O)c2ccc(F)cc2)C(c2ccc(O)cc2)N1c1ccc(F)cc1 (stereo not given)"
  cat: "FALSE"
- compound: "O[C@@H](COc1cccc2ncccc12)CN1CCN(C2c3ccccc3[C@@H]3[C@H](c4ccccc42)C3(F)F)CC1 (stereo not given in full)"
  cat: "TRUE"
- compound: "COc1nc(C)cnc1NS(=O)(=O)c1cccnc1-c1ccc(-c2nnco2)cc1"
  cat: "FALSE"
- compound: "CC(C)(CO)[C@@H](O)C(=O)NCCC(=O)O"
  cat: "FALSE"
- compound: "O=C(O)CCNc1cc(N2CCc3ccccc3CC2)nc(-c2ccccn2)n1"
  cat: "FALSE"
- compound: "NC(=O)c1noc([C@H](CCCC2CCCCC2)CC(=O)NO)n1"
  cat: "TRUE"
- compound: "COc1nccc(-c2c(-c3ccc(F)cc3)ncn2C2CCC(O)CC2)n1 (stereo not given)"
  cat: "FALSE"
- compound: "CO[C@H]1/C=C\\O[C@@]2(C)Oc3c(C)c(O)c4c(O)c(c(C=NN5CCN(C6CCCC6)CC5)c(O)c4c3C2=O)NC(=O)C(C)=CC=C[C@H](C)[C@H](O)[C@@H](C)[C@@H](O)[C@@H](C)[C@H](OC(C)=O)[C@H]1C"
  cat: "TRUE"
- compound: "CC[C@@H]([C@H](C)O)n1ncn(-c2ccc(N3CCN(c4ccc(OCC5CO[C@@](Cn6cncn6)(c6ccc(F)cc6F)C5)cc4)CC3)cc2)c1=O (stereo not given in full)"
  cat: "TRUE"
- compound: "COc1nccc(-c2c(-c3ccc(F)cc3)ncn2C2CCNCC2)n1"
  cat: "FALSE"

----------
assayComment: Quantitative High-Throughput drug screen in 47 multiple myeloma cell lines against the NCATS MIPE library collection: SKMM1_PLB cell viability assay (AID 1919863); further: potency means the concentration at half of the fitted maximal effect; nearly all actives have a fitted effect of over 35% in size
condition: SKMM1 myeloma viability, CellTiter-Glo ATP, 48 h
Results filed as inconclusive are left out. The source made the active and inactive calls. Calls come from the whole dose curve; as a rule, active = well fitted cell-killing curve with a large enough effect; inconclusive = small, poorly fitted or top-dose-only effect, or effect the other way; inactive = no such curve, though single readings can be large or run the other way.
Reported Potency values are given for each entry in this list.
measuredMetric: Potency

- molecule: "CSc1cccc(Nc2ncc3cc(-c4c(Cl)cccc4Cl)c(=O)n(C)c3n2)c1"
  measured: "1.87 µM (active)"
- molecule: "COc1cc([C@H]2Oc3cc([C@H]4Oc5cc(O)cc(O)c5C(=O)[C@H]4O)ccc3O[C@H]2CO)ccc1O"
  measured: "23.5 µM (active)"
- molecule: "OC(c1cc(C(F)(F)F)nc2c(C(F)(F)F)cccc12)C1CCCCN1 (stereo not drawn)"
  measured: "23.5 µM (active)"
- molecule: "CC1(COc2ccc3c(c2)ncn3-c2ccc3cccc(N4CCC(N)CC4)c3n2)COC1"
  measured: "16.6 µM (active)"
- molecule: "Cc1ccccc1C(=O)c1ccc(Nc2ccc(Br)cc2N)cc1Cl"
  measured: "16.6 µM (active)"
- molecule: "O=c1[nH]nc(OCCCc2ccc(Cl)cc2)c(NCc2cccnc2)c1Br"
  measured: "18.7 µM (active)"
- molecule: "O[C@@H](COc1cccc2ncccc12)CN1CCN(C2c3ccccc3[C@@H]3[C@H](c4ccccc42)C3(F)F)CC1 (stereo partly drawn)"
  measured: "23.5 µM (active)"
- molecule: "N#CC1(c2cccc(C(=O)Nc3cc(Oc4ccc5nc(NC(=O)C6CC6)sc5n4)ccc3F)c2Cl)CC1"
  measured: "2.96 µM (active)"

----------
Tested on: PA-1
assayComment: Primary qHTS to identify gynecologic anti-cancer compounds using libraries of approved drugs and bioactive compounds (AID 1345084); further: nearly all actives have a fitted effect of over 55% in size
condition: Gynecologic cancer cell panel viability, ATPlite luminescence, 48 h; series mostly up to 57.5 µM
Records with an inconclusive call do not appear. Activity calls are given as the source filed them. Calls follow the shape of the dose curve; as a rule, active = well fitted cell-killing curve with a large enough effect; inconclusive = small, poorly fitted or top-dose-only effect, or effect the other way; inactive = flat fitted curve, though single readings scatter.

- compound: "CCCCC(F)(F)[C@@]1(O)CC[C@H]2[C@H](CC(=O)[C@@H]2CCCCCCC(=O)O)O1"
  measuredTarget: "PA-1"
  outcome: "inactive"
- compound: "CCn1c(-c2nonc2N)nc2cncc(CNC3CCNCC3)c21"
  measuredTarget: "PA-1"
  outcome: "inactive"
- compound: "CCN1CCN(c2ccc(Nc3cc(N(C)C(=O)Nc4c(Cl)c(OC)cc(OC)c4Cl)ncn3)cc2)CC1"
  measuredTarget: "PA-1"
  outcome: "inactive"
- compound: "Cn1c(=O)c(-c2c(Cl)cccc2Cl)cc2cnc(Nc3cccc(C(=O)O)c3)nc21"
  measuredTarget: "PA-1"
  outcome: "inactive"
- compound: "COc1nccc(-c2c(-c3ccc(F)cc3)ncn2C2CCC(O)CC2)n1 (centres undefined)"
  measuredTarget: "PA-1"
  outcome: "inactive"
- compound: "CN(C)c1nc(Cc2ccc(NC(=O)c3ccc(C(F)(F)F)cc3)cc2)nc(N(C)C)c1CC(=O)O"
  measuredTarget: "PA-1"
  outcome: "inactive"
- compound: "O=C(Nc1cccc2c(=O)cc(-c3nn[nH]n3)oc12)c1ccc(OCCCCc2ccccc2)cc1"
  measuredTarget: "PA-1"
  outcome: "inactive"
- compound: "CC(C)(C)c1nc(-c2cccc(NS(=O)(=O)c3c(F)cccc3F)c2F)c(-c2ccnc(N)n2)s1"
  measuredTarget: "PA-1"
  outcome: "inactive"
- compound: "Cc1csc(-c2nnc(Nc3ccc(Oc4ncccc4-c4ccnc(N)n4)cc3)c3ccccc23)c1"
  measuredTarget: "PA-1"
  outcome: "inactive"
